Read-out: Interferon-gamma inducible Protein 10 (IP10), CXCL10 (gene 3627)
Experiment: BSK_KF3CT_IP10: BioMAP Diversity Plus: KF3CT Assay for Interferon-gamma inducible Protein 10 (IP10) Biomarker Activity (AID 2283068)
Details: primary human keratinocytes with fibroblasts; actives raise or lower the signal
Calls of active or inactive are those of the source. Rule for the calls: active = hit-call score of the fitted dose curve at least 0.9, where 1 is the maximum; inactive = score below 0.9.
Valid outcomes are listed here; reply with one: active, inactive

Which result was noted for this molecule in the test: `O=C1CCCCC1`
inactive

Lab log entry: `OCC(O)CO` — outcome as called in the assay?
inactive

Recorded call for `O=C(N[C@@H](c1ccccc1)[C@@H]1CCCCN1)c1cccc(C(F)(F)F)c1Cl` ?
active

Record lookup: outcome of this test for `CCOCCOCCO` ?
inactive

Give the logged outcome of this assay for the following molecule: `O=C(O)c1cccnc1`
inactive

In this assay, the call recorded for `Nc1nc(=S)c2[nH]cnc2[nH]1` was what?
inactive

Returns: the outcome recorded for CCCCC(CC)CO (stereo not given) in this assay.
inactive

So what was the verdict on `CCCCCCCC(=O)OC` in this test?
inactive

Please let me know the test result on file for `O=C(Oc1ccccc1)c1cccc(C(=O)Oc2ccccc2)c1` .
inactive

Answer briefly: the call reported for `CCCCCCCCCCCCCCOS(=O)(=O)O` in this assay.
active

Assay result, entry CCC(C)N(C)C(=O)c1cc2ccccc2c(-c2ccccc2Cl)n1 (stereo not given) — outcome?
inactive

Name the outcome recorded for `Oc1ccc(O)cc1` in the assay.
active

Fill in: this test's call for Cc1c(C)c2c(c(C)c1O)CCC(C)(COc1ccc(CC3SC(=O)NC3=O)cc1)O2 (stereo not given) is ___
active

# fetch the recorded call for `CCc1cc(C2=C(C(=O)O)N(c3ccccc3C(F)(F)F)S(=O)(=O)c3ccccc32)cc2c1OCO2` here
inactive

I would be grateful if you could indicate the recorded call for `CN(C)C(=O)NC1(c2ccccc2)CCN(CCC[C@]2(c3ccc(Cl)c(Cl)c3)CCCN(C(=O)c3ccccc3)C2)CC1` .
inactive

Recorded call for `CC(C)(C)c1ccccc1` ?
inactive

How did this test come out for `CC(C)c1cccc(C(C)C)c1NC(=O)NS(=O)(=O)c1cc(C(C)(C)O)co1` ?
inactive

What classification did `CC(C)(O)c1ccc(CNC(=O)c2cccnc2Oc2ccc(F)cc2)cc1` end up with in this test?
inactive

I would be grateful if you could indicate the recorded call for `COc1ccc(C(=O)Nc2nc3ccccc3c(NCc3ccccc3)c2C#N)cc1` .
inactive

GET /call?item= `NC(=Nc1ccccc1)Nc1ccccc1` returns the recorded outcome of this test.
inactive

----------
Assay: BSK_4H_Eotaxin3: BioMAP Diversity Plus: 4H Assay for Eotaxin 3 Biomarker Activity (AID 2283000);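 for outcome: CCL26 protein level quantified by ELISA in parallel with SRB cytotoxicity check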
Details: primary human endothelial cells (HUVEC); actives raise or lower the signal
Active and inactive are the calls of the source. The calls were made as follows: active = hit-call score of the fitted dose curve at least 0.9, where 1 is the maximum; inactive = score below 0.9.
Permitted responses: true (1) for active, false (0) for inactive

What outcome does the record of this test show for `CC(N)=O` ?
false (0)

Each compound tested received a call. Report the one for `CSc1ccc(Oc2ccc(S(N)(=O)=O)cc2CN(C)C)cc1C` .
false (0)

Record lookup: outcome of this test for CC(=O)OC1CC(C)OC(C)O1 (configuration not stated) ?
false (0)

Could you kindly confirm the outcome this assay logged for `CCCCCCC(C=O)=Cc1ccccc1` ?
true (1)

GET /call?item= Cc1c(C)c2c(c(C)c1O)CCC(C)(COc1ccc(CC3SC(=O)NC3=O)cc1)O2 (configuration not stated) returns the recorded outcome of this test.
true (1)

Query: recorded result category for `O=NO` in this test
false (0)

Can you look up the reported call for `CCc1nc(N)nc(N)c1-c1ccc(Cl)cc1` for me?
false (0)

What call does the record list for `COc1ccc(OC(F)(F)F)cc1CN[C@H]1CCCN[C@H]1c1ccccc1` ?
true (1)

In this assay, the call recorded for `CN(C)CCCN1c2ccccc2Sc2ccc(Cl)cc21` was what?
true (1)

What was the test verdict on `CCc1cc(C2=C(C(=O)O)N(c3ccccc3C(F)(F)F)S(=O)(=O)c3ccccc32)cc2c1OCO2` ?
false (0)

// outcome(item) with item = `CO[C@@H]1COCC[C@@H]1N[C@@H]1CC[C@@](C(=O)N2CCc3ncc(C(F)(F)F)cc3C2)(C(C)C)C1`
false (0)

Could you check what this test reported for CCCCC(CC)CO (configuration not stated) ?
false (0)

I would be grateful if you could indicate the recorded call for `CC1(C)C(=O)NC(=O)N1CO` .
false (0)

Please share the test call associated with `CC(=O)O` .
false (0)

Hi team, can someone confirm the assay call for `CCCC[C@H]1CN(CC2CCOCC2)C(=O)OC12CCN(C1(C)CCN(C(=O)c3c(C)ncnc3C)CC1)CC2` ?
false (0)

Give the logged outcome of this assay for the following compound: `CN(C)CCCN(C)CCCN(C)C`
false (0)

Please share the test call associated with `CCCCc1nc2cccnc2n1Cc1ccc(-c2ccccc2-c2nnn[nH]2)cc1` .
false (0)

Assay result, entry `OCC(O)CO` — outcome?
false (0)

Would you mind telling me which call this test gave CC(=O)CC(c1ccccc1)c1c(O)c2ccccc2oc1=O (configuration not stated) ?
false (0)

Which outcome was entered for the compound `CCCC(=O)O` in this test?
false (0)

Recorded test outcome, item `CN(C)C(=O)NC1(c2ccccc2)CCN(CC[C@@]2(c3ccc(F)c(F)c3)CN(C(=O)c3ccccc3)CCO2)CC1`
false (0)

Query: recorded result category for CCCCCCC(CCCCCCCCCCC(=O)OCC(COC(C)=O)OC(C)=O)OC(C)=O (configuration not stated) in this test
false (0)

Returns: the outcome recorded for `Oc1ccccc1O` in this assay.
false (0)

Status in this test for `N[C@@H](Cc1c[nH]c2ccccc12)C(=O)O` ?
false (0)

For `COc1ccc(C(=O)Nc2nc3ccccc3c(NCc3ccccc3)c2C#N)cc1` , which call appears in the assay record?
false (0)

Recorded call for `OCC(CO)n1cnc(-c2ccc(F)cc2)c1-c1ccnc(Oc2ccccc2)n1` ?
false (0)

Which outcome was assigned to `CC(C)COC(=O)CCCCC(=O)OCC(C)C` in this test?
false (0)

Please let me know the test result on file for `CC(C)(O)c1ccc(CNC(=O)c2cccnc2Oc2ccc(F)cc2)cc1` .
false (0)

So what was the verdict on `Cc1cn([C@H]2C=C[C@@H](CO)O2)c(=O)[nH]c1=O` in this test?
false (0)

Which result was noted for this compound in the test: `CN(C)C(=O)NC1(c2ccccc2)CCN(CCC[C@]2(c3ccc(Cl)c(Cl)c3)CCCN(C(=O)c3ccccc3)C2)CC1`
false (0)

# outcome recorded in this test, key = `CCCCCCCC(=O)OC`
false (0)

Recorded test outcome, item `c1ccc2occc2c1`
false (0)
